Reference for the values: PubChem BioAssay

- PROTOCOL_TEXT: growth of efflux-deficient E. coli DRC39 – strain DRC39, OD650, 48 h, E. coli filamentation inducers, primary screen (AID 1179);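 note: screen aims at cell division blockers that make cells filament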
- RUN_CONDITIONS: E. coli DRC39 delta-acrAB growth, higher = more signal, called active from +8 up or from −8 down
Threshold rule: z-score greater than or equal to -0.7 is satisfied; below that, not satisfied.

[
  {
    "COMPOUND": "NC(=O)NCC#Cc1ccc2c(c1)[C@]1(C(=O)N2)[C@H](C(=O)N2CCN(c3ncccn3)CC2)[C@H]2C(=O)O[C@H](c3ccccc3)[C@H](c3ccccc3)N2[C@@H]1c1ccc(O)cc1",
    "GROUP": "satisfied"
  },
  {
    "COMPOUND": "CC(C)C[C@@H]1NC(=O)[C@@H]2C[C@H](C(=O)NCCCCCCN)[C@H](c3cccc(OCCO)c3)N2C1=O",
    "GROUP": "not satisfied"
  },
  {
    "COMPOUND": "COC(=O)[C@@H]1N=C(c2ccc(OCCCO)cc2)O[C@@H]1c1ccccc1",
    "GROUP": "satisfied"
  },
  {
    "COMPOUND": "COCCOC(=O)N1C(=O)[C@@]2(c3cc(C#CC4=CCCCC4)ccc31)[C@H](C(=O)Nc1nc3ccccc3s1)[C@H]1C(=O)O[C@H](c3ccccc3)[C@H](c3ccccc3)N1[C@@H]2c1ccc(O)cc1",
    "GROUP": "not satisfied"
  },
  {
    "COMPOUND": "CCCC=C(CCC)[C@@H](NS(=O)(=O)c1ccc(C(F)(F)F)cc1)c1ccccc1",
    "GROUP": "satisfied"
  },
  {
    "COMPOUND": "COc1cc(NN2C(C(O)c3ccco3)C=CC3C(=O)N(C)C(=O)C32)cc(OC)c1OC (centres undefined)",
    "GROUP": "not satisfied"
  },
  {
    "COMPOUND": "COc1ccc([C@H]2OC[C@@H]3C[C@H](Cc4ccccc4)C(=O)N32)cc1",
    "GROUP": "not satisfied"
  },
  {
    "COMPOUND": "CCCC[C@@H](O)C1=C(COc2ccccc2)C[C@H]2C(=O)N(Cc3ccccc3)C(=O)[C@H]2[C@H]1CO",
    "GROUP": "satisfied"
  }
]

----------
- PROTOCOL_TEXT: plasmodial surface anion channel blockers, osmotic lysis – cell-based, P. falciparum Indochina, OD700, 18 h, primary screen (AID 1157)
- RUN_CONDITIONS: P. falciparum Indochina infected erythrocytes, osmotic lysis OD700, 18 h; higher = more signal, called active from +8 up or from −8 down
Threshold rule: z-score greater than or equal to 0.5 is T; below that, F.

[
  {
    "MOLECULE": "COC(=O)[C@@]1(Cc2ccccc2)[C@H]2c3cc(C(=O)N4CCCC4)n(CCc4ccccn4)c3C[C@H]2CN1C(=O)c1ccccc1",
    "GROUP": "T"
  },
  {
    "MOLECULE": "CC(C)=C1C(=O)C(c2ccccc2)=C2CN3C(=O)N(CCc4ccccc4)C(=O)[C@]3(Cc3ccc(C(F)(F)F)cc3)[C@H]21",
    "GROUP": "T"
  },
  {
    "MOLECULE": "C=CCC(OC(C)=O)[C@@H]1[C@@H](N(Cc2ccc(-c3cccc(C(F)(F)F)c3)o2)C(=O)c2ccc(-c3ccccc3)cc2)c2cc(OCCCO)ccc2N1C(=O)Cc1ccc2ccccc2c1 (stereo partly specified)",
    "GROUP": "T"
  },
  {
    "MOLECULE": "CCCCCN1CC=CC23O[C@@H]4C=CCCOC(=O)C4[C@H]2C(=O)N(CCCCCCO)[C@@H]3C1=O (stereo partly specified)",
    "GROUP": "F"
  },
  {
    "MOLECULE": "C=CCC(OC(C)=O)[C@@H]1[C@@H](N(Cc2ccc(-c3ccccc3)cc2)C(=O)c2ccc(-c3ccccc3)cc2)c2cc(OCCCO)ccc2N1C(=O)c1ccc2ccccc2c1 (stereo partly specified)",
    "GROUP": "F"
  },
  {
    "MOLECULE": "CCC#CCN(Cc1ccccc1Br)[C@H](/C=C/C1CC1)[C@@H](O)Cc1ccccc1",
    "GROUP": "F"
  },
  {
    "MOLECULE": "Cc1ccc(NN2C(C(O)c3c(F)cccc3Cl)C=CC3C(=O)N(C4CCCCC4)C(=O)C32)cc1 (stereo unspecified)",
    "GROUP": "T"
  },
  {
    "MOLECULE": "COC(=O)[C@@H]1N=C(c2ccc(OCCCO)cc2)O[C@@H]1C",
    "GROUP": "F"
  },
  {
    "MOLECULE": "COCC(=C=CC[C@H](O)c1ccc(CO)o1)CCO",
    "GROUP": "F"
  },
  {
    "MOLECULE": "C=CCNC(=O)[C@@H]1[C@H]2C(=O)O[C@H](c3ccccc3)[C@H](c3ccccc3)N2[C@H](c2ccc(OCCO)cc2)[C@@]12C(=O)N(C(=O)OCCOC)c1ccc(C#Cc3ccc(OC)cc3)cc12",
    "GROUP": "T"
  },
  {
    "MOLECULE": "C#Cc1cc2ccccc2oc1=O",
    "GROUP": "T"
  },
  {
    "MOLECULE": "C=CC[C@@]1(C(=O)NCCCOC)N=C(c2ccc(OCCCO)cc2)O[C@@H]1c1ccccc1N=[N+]=[N-]",
    "GROUP": "T"
  },
  {
    "MOLECULE": "O=C1O[C@H](c2ccccc2)[C@H](c2ccccc2)N2[C@H]1[C@@H](C(=O)O)[C@]1(C(=O)Nc3ccc(C#CCCO)cc31)[C@H]2c1ccccc1OCCO",
    "GROUP": "F"
  },
  {
    "MOLECULE": "CCOc1cc(C(O)C2C=CC3C(=O)NC(=O)C3N2Nc2ccc(Cl)cc2Cl)ccc1O (stereo unspecified)",
    "GROUP": "T"
  },
  {
    "MOLECULE": "CC(C)C(CO)N1C(=O)[C@@H]2[C@H]3C(=O)OCC=C[C@H]3OC23C=CCN(c2ccc(Cl)cc2)C(=O)[C@@H]13 (stereo partly specified)",
    "GROUP": "F"
  }
]
